- tested-system: human 11β-HSD1 (Homo sapiens)
- Sequence (P28845 whole entry): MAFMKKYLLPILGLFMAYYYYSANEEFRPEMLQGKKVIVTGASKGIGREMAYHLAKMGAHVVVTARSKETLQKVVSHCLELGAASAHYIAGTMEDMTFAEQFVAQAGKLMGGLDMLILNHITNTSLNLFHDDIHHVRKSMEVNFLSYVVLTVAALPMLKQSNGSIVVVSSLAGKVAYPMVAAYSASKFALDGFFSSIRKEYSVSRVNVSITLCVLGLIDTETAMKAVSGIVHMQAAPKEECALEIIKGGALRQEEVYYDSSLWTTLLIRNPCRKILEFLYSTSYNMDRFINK
- assay-protocol: hHSD1 SPA: inhibition of 11β-HSD1 (cortisone to cortisol conversion, scintillation proximity assay)
- assay-setup: recombinant human 11β-HSD1, SPA
pIC50: −log10 of the molar value.
reported-property: pIC50

> print(dat)
                                   compound  measured
1  COc1ccc(C(=O)N(C2CC2)[C@H]2CC[C@](CCO)(c3ccccn3)CC2)c(F)c1 [Compound 25]      7.66
2  CC(C)(C)c1ccc(C(=O)N(C2CC2)[C@H]2CC[C@](CCO)(c3ccccn3)CC2)cc1 [Compound 29]      7.92
3  COc1ccc(C(=O)N(C2CC2)[C@H]2CC[C@H](CCO)CC2)cc1 [Compound 9]      8.20

[I] O=C(c1cccc(F)c1F)N(C1CC1)[C@H]1CC[C@H](CCO)CC1 [Compound 7]
[II] CC(C)c1ccc(C(=O)N(C2CC2)[C@H]2CC[C@](CCO)(c3ccccn3)CC2)cc1 [Compound 28]
Q: Between I and II , which one shows the larger pIC50 value? Which one? Tell me its label.
Ans: II
(II: 8.14, I: 7.51)

[I] O=C(c1ccc(F)cc1)N(C1CC1)[C@H]1CC[C@H](CCO)CC1 [Compound 5]
[II] O=C(c1cccc(F)c1)N(C1CC1)[C@H]1CC[C@](CCO)(c2ccccn2)CC1 [Compound 15]
Q: Lower value of pIC50 belongs to which: I or II ? Your choice should be expressed through its label.
Ans: II

[a] O=C(c1ccc(Cl)cc1)N(C1CC1)[C@H]1CC[C@](CCO)(c2ccccn2)CC1 [Compound 19]
[b] CC(C)c1ccc(C(=O)N(C2CC2)[C@H]2CC[C@H](CCO)CC2)cc1 [Compound 11]
[c] COc1cccc(C(=O)N(C2CC2)[C@H]2CC[C@](CCO)(c3ccccn3)CC2)c1 [Compound 23]
Q: Falling order of pIC50, please. Arrange the labels as the request states and list them.
Ans: b, a, c
(b: 9.03, a: 7.64, c: 7.21)

The measurements presented in this section are drawn from patent US7932421B2.
